So I've got a bunch of sequences here, and I need their protein stability index values.
assay: protein stability index of a GFP-peptide fusion (GPS, HEK-293T) (PSI 1-6); higher = more stable; details: treatment: MLN4924 1 uM, 8 h; c terminus: a fixed tail appended;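 further: 24-mer peptide tiles fused after GFP, lentivirally expressed, FACS-sorted into six equal bins by GFP/DsRed ratio, decoded by Illumina sequencing, PSI is the read-weighted mean bin number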

APPRRLRSRKVSCPLTRSNGDLSR [FCHO1] :: 4.34
NCKPLKSYMLQDSLEHVQLFDLMR [CLK3] :: 2.25
VWVLMDEDVRIFFYQSPYDSEQVP [NCF4] :: 2.33

Batch of 7 sequences: report protein stability index for each.
1. GYELGIISGALLQIKTLLALSCHE [SLC2A12]
2. GQCQVLVQRSPWLMMRMGILGRGL [TCAP]
3. GLPRSRDCRVDLGSEVYRMLREPA [PDLIM4]
4. ISVQNYKQVCKIAALHGLEETKKL [KLHL14]
5. KCILKTPGKINCLRNCKTYQARKP [RHOBTB3]
6. LRSSDLYRHQRLHTGERPYECTVC [ZNF449]
7. GKWQQQGDLQDTKENREEARFQDK [CHGB]

OUTPUT:
1: 3.71; 2: 2.14; 3: 3.39; 4: 2.31; 5: 3.03; 6: 3.17; 7: 5.33

Batch of 6 sequences: report protein stability index for each.
1. GPGYWMCCHRSQKGFPGCKLGLHD [FBXO34]
2. SKKFKNCFQSCLCCCCYQSKSLMT [EDNRA]
3. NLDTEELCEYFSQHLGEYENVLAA [NECAB1]
4. LSCLHSVCEQCLQILYESCPKYKF [RNF208]
5. RLRLQRTGGLGGERERQPCGDGNT [SOAT2]
6. KSNFRVQLFEDPTVDKEVEIRKKV [MNAT1]

OUTPUT:
[2.11, 2.84, 3.3, 2.35, 4.49, 4.69]

Batch of 4 sequences: report protein stability index for each.
1. AQKALDLPSSGEGLAFFTFPNIAS [HMOX1]
2. AAQELENQMKERQGLFFDMEAYLP [TMEM120A]
3. GVGKSAMTMQFISHRFPEDHDPTI [RIT1]
4. SAESSGCNSHMPYGYAAQARARER [KCNA4]

OUTPUT:
[2.96, 3.87, 3.46, 4.63]
